Where do the numbers come from? From paper PMC7731903.

test: Alisertib plasma PK in patients; format: in vivo, human; conditions: human, plasma, oral, 50 mg, Median Tmax (range), MRV, alisertib 50 mg b.i.d., C1D7, n=2

| compound | resultUnit | Tmax |
| --- | --- | --- |
| COc1cc(Nc2ncc3c(n2)-c2ccc(Cl)cc2C(c2c(F)cccc2OC)=NC3)ccc1C(=O)O [alisertib] | h | 2.5 |

* * *

test: Alisertib plasma PK in patients; type: in vivo, human; settings: human, plasma, oral, 50 mg, Median Tmax (range), MR, alisertib 50 mg b.i.d., C1D7, n=12

| chemicalString | resultUnit | Tmax |
| --- | --- | --- |
| COc1cc(Nc2ncc3c(n2)-c2ccc(Cl)cc2C(c2c(F)cccc2OC)=NC3)ccc1C(=O)O | h | 2 |
